Target: T1, HLA-A03.01 (human)
T1 construct: Purified class I MHC
Test: competition with radiolabeled reference peptide, purified MHC I
Each entry falls into one class according to its IC50; the ranges are bottom end = under 8 nM, midrange = from 8 nM up to 70 nM, top end = 70 nM and over

Consider the worked cases shown below.
SLKKVPALK (also called SMAP1(-1)) :: bottom end
HLQLKSCRRK (also called SMAP1(-1)) :: top end
KMRKKYAQK (also called THAP5(-1)) :: bottom end
RVNTAWKTK (also called TFAM(+1)) :: midrange
LMLLRLNLRK (also called SEC31A(-1)) :: bottom end
KSKKKETFK (also called SEC63 (+1)) :: top end
SLKKVPALKK (also called SMAP1(-1)) :: midrange
SAMTTSSSQK (also called TGFBR2(-1)) :: midrange

Enquiry: Band for KISNWSLKK (also called SMAP1(-1)) ?
Return: midrange

Enquiry: Moving on to the next binder: WSLKKVPALK (also called SMAP1(-1))
Return: top end

Enquiry: Same question for AMTTSSSQK (also called TGFBR2(-1)) please.
Return: midrange

Enquiry: Next up: FVMSDTTYK (also called TTK(-1))
Return: midrange

Enquiry: Would you kindly repeat that for KTFEKKGEK (also called TTK(-1)) ?
Return: midrange
